System: Fibroblast
METHOD_DESCRIPTION: Multiplex assay against human fibroblast
Type: toxicity, cell-based
SETTINGS: 24 h, 1 µM, compound concentration 1 uM, replicate 1
Recorded Population Apoptotic (%) by entry
# number only, unit % dropped from output

For orientation, consider the following solved cases.
COMPOUND	Population Apoptotic (%)
Cc1cccc(NC(=O)CN2CCC(c3ccccn3)CC2)c1.Cl.Cl	50
COc1cccc2c1c(NS(=O)(=O)c1ccc(Cl)s1)nn2Cc1cccc(CNC(=O)C(C)(C)O)c1	55
N#Cc1c(Oc2cccc(OS(=O)(=O)CCCC(F)(F)F)c2)cccc1C(F)(F)F	50

Param item = Cl.NCCc1ccc(O)c(O)c1 [DOPAMINE HYDROCHLORIDE] ; retrieve measured Population Apoptotic (%). 55

Cool, now `O=C(CCCc1ccccc1)Nc1nc2ccccc2c(=O)s1` 50

Cool, now `CN(C)C(=O)Cn1cc(-c2ccc(-c3cncc4ccccc34)cc2)cn1` 47

Cool, now `CC(C)COc1ccc(CNC(=O)N(Cc2ccc(F)cc2)C2CCN(C)CC2)cc1` 60

Cool, now `Cc1noc(-c2ccc(-c3ccc(CC(=O)O)cc3)cc2)c1NC(=O)O[C@H](C)c1ccccc1Cl` 20

Cool, now `C[C@H](N)COC(=O)[C@@H](CCCCN)NC(=O)Cc1c(-c2ccc3ccccc3c2)[nH]c2c1ccc1ccccc12` 53

Cool, now `CCCOc1ccc2[nH]cc(C3=CCNCC3)c2n1.Cl` 57

Cool, now Cc1sc2c(c1C)C(c1ccc(Cl)cc1)=N[C@@H](CC(=O)NCCCCCCCCNC(=O)COc1cccc3c1C(=O)N(C1CCC(=O)NC1=O)C3=O)c1nnc(C)n1-2 (some centres undefined) 56

Cool, now `CN1CCN(c2cc(-c3ccccc3)nc(N)n2)CC1` 75

Cool, now `CN[C@@H](C)C(=O)N[C@H](C(=O)N1CCC[C@H]1C(=O)Nc1snnc1-c1ccccc1)C1CCCCC1` 60

Cool, now `COc1ccccc1N1CCN(C[C@@H](C(=O)NC(C)(C)C)c2ccccc2)CC1.Cl.Cl` 50

Cool, now `O=C1[C@H](Cc2ccc(O)cc2)N2C(=O)CCN(C(=O)NCc3ccccc3)[C@H]2CN1Cc1cccc2ccccc12` 42

Cool, now `Cc1onc(-c2ccccc2Cl)c1C(=O)N(C)c1ccc(Cl)cc1` 44
